- METHOD: Tmax in rat brain at 2.5 mg/kg, po
- Type: ADME, organism-based
- Design: dose 2.5 mg/kg, route oral
OUTCOME MEASURE: Tmax (min)
Numbers only here, please. The scale is min.

[ask] Using the record for Cc1cc(-c2ccsc2)nnc1N1CCN(c2ncccn2)CC1 , report its Tmax.
[reply] 19.8
